Each record here notes measured LD50.
# Method description: Acute toxicity
# Conditions used: mouse, in vivo, po, SLC-ddY male mice of aging 4 weeks
Reported metric: LD50

compound="O=C(NCCCOc1cccc(CN2CCCC2)c1)c1cccnc1 [A]" reported_metric=LD50 result="> 1000 mg/kg"
compound="O=CNCCCOc1cccc(CN2CCCC2)c1 [compound 6]" reported_metric=LD50 result="> 1000 mg/kg"
compound="CC(=O)NCCCOc1cccc(CN2CCCC2)c1 [compound 4]" reported_metric=LD50 result="> 1000 mg/kg"

----------
# Assayed target: histamine H2 receptor (Cavia porcellus, UniProt P47747)
# Construct: spontaneously beating atria of guinea pig in vitro; from tissue; host or cells: spontaneously beating guinea pig atria
# Sequence (P47747 whole entry): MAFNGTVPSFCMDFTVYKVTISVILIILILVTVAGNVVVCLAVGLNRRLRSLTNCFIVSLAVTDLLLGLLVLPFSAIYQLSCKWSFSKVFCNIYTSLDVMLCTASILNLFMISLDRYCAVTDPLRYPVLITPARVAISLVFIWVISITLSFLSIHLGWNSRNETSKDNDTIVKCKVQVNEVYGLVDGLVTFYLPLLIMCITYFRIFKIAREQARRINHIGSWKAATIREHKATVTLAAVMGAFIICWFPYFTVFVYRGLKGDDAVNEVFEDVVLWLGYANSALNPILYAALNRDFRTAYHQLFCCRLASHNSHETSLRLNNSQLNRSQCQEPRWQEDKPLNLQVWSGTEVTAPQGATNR
# Method description: Blocking action on histamine H2 receptor in vitro (positive chronotropic effect of histamine in spontaneously beating atria)
# Conditions used: negative logarithm of concentration required to shift dose-response of histamine to the right by 2-fold; guinea pig atria; read-out: pA2 (converted)
// values below are reported Kb
Reported metric: Kb (nM)

compound_string=O=C(NCCCOc1cccc(CN2CCCC2)c1)c1cc(-c2ccccc2)on1 reported_metric=Kb numeric_result=186
compound_string=O=C(NCCCOc1cccc(CN2CCCC2)c1)c1cccs1 reported_metric=Kb numeric_result=138
compound_string=COC(=O)c1ccc(C(=O)NCCCOc2cccc(CN3CCCC3)c2)cc1 reported_metric=Kb numeric_result=81.3
compound_string=O=C(NCCCOc1cccc(CN2CCCC2)c1)c1ccc([N+](=O)[O-])cc1 reported_metric=Kb numeric_result=100
compound_string=O=CNCCCOc1cccc(CN2CCCC2)c1 reported_metric=Kb numeric_result=170
compound_string=CC(=O)NCCCOc1cccc(CN2CCCC2)c1 reported_metric=Kb numeric_result=195
compound_string=O=C(NCCCOc1cccc(CN2CCCC2)c1)c1ccccc1 reported_metric=Kb numeric_result=191
compound_string=O=C(NCCCOc1cccc(CN2CCCC2)c1)c1cccnc1 reported_metric=Kb numeric_result=129
